- EXPERIMENTAL TARGET: T1, uPAR expressed on cells (RKO human colon carcinoma cells, HeLa cells, stimulated HUVEC) (human, UniProt Q03405 23-305)
- T1 construct: whole, on cells; GPI-anchored receptor on whole cells
- T1 sequence (Q03405 23-305): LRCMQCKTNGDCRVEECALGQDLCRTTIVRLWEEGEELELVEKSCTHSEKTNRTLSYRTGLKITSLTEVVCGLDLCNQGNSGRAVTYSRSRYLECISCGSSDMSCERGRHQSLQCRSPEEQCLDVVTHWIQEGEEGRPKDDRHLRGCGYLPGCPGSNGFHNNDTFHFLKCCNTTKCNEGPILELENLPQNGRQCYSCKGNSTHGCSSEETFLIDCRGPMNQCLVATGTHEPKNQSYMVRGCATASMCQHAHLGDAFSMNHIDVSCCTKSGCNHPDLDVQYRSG
- EXPERIMENT NOTES: competition with 0.2 nM [125I]DFP-uPA on RKO cells, 4 C
pIC50: −log10 of the molar value. Bridges are numbered along the chain shown (N, C = ends). L10 (R1 : -NH-m-phenylene-NH2) = linker L10: -CO-CH2-NH-CO-CH2-CH2-CH(CO-NH-CH2-COR1)-NH- with R1 = -NH-m-phenylene-NH2; L10 (R1 : -NH-o-phenylene-NH2) = linker L10: -CO-CH2-NH-CO-CH2-CH2-CH(CO-NH-CH2-COR1)-NH- with R1 = -NH-o-phenylene-NH2; L10 (R1 : -NH-p-phenylene-NH2) = linker L10: -CO-CH2-NH-CO-CH2-CH2-CH(CO-NH-CH2-COR1)-NH- with R1 = -NH-p-phenylene-NH2
pIC50 listing for selected binders.

BINDER | pIC50
VSNKYFSNIHW (linker N-C via L10 (R1 : -NH-p-phenylene-NH2); also: cyclised by linker L10 between X1 N and X11 carbonyl) [receptor targeting ligand-p-phenylenediamine derivative (RTLPPD)] | ~8.30
VSNKYFSNIHW (linker N-C via L10 (R1 : -NH-p-phenylene-NH2); also: biotin-X (7-atom spacer) label, site not given here, RTLPPD reacted with Biotin-X-sulfoNHS) [biotin-modified-RTLPPD] | ~5.96
VSNKYFSNIHW (linker N-C via L10 (R1 : -NH-o-phenylene-NH2); also: cyclised by linker L10 between X1 N and X11 carbonyl, also called isomer of RTLPPD incorporating o-phenylenediamine (OPD)) [RTLOPD] | ~7.00
VSNKYFSNIHW (linker N-C via L10 (R1 : -NH-p-phenylene-NH2); also: Oregon Green (5/6-isomer mix) label, site not certain (intended on phenylenediamine amine), RTLPPD reacted with Oregon Green isothiocyanate; also called Oregon Green-labeled-RTLPPD) [Oregon Green-modified-RTLPPD] | ~6.10

Consider the record given below.
Look at this binder and give its reported pIC50. VSNKYFSNIHW (linker N-C via L10 (R1 : -NH-m-phenylene-NH2); also: cyclised by linker L10 between X1 N and X11 carbonyl, also called isomer of RTLPPD incorporating m-phenylenediamine (MPD)) [RTLMPD]
~7.30
